test: NCI Yeast Anticancer Drug Screen. Data for the sgs1 mgt1 strain (AID 161); conditions: S. cerevisiae sgs1 mgt1 strain, at 50.0 µM
This is part of a sample that, as a whole, favours compounds with a hit. Of some 79,000 tested, about 15% had one in any assay. Active and inactive are the calls of the source. Cut-off read from the data, not from the text of the source: active = growth inhibition above about 70%; inactive = the rest.
Return exactly one item of y (active), n (inactive)

query: How was CCOC(=O)CCC(NC(=O)c1ccc(Nc2nc3ccccc3nc2C(=O)OCC)cc1)C(=O)OCC (stereo not drawn) classified in this test?
result: n

query: Test call for this molecule, please: O=S(=O)(O)c1cc2cc(S(=O)(=O)O)c(O)cc2cc1O
result: n

query: Name the outcome recorded for O=c1[nH]c2cc(Cl)ccc2nc1/C=C(\O)c1cccc2ccccc12 in the assay.
result: n

query: Hi, sorry to bother you, what did the test record for Cc1ccccc1N=C(N)Nc1ccccc1 ?
result: n

query: # outcome recorded in this test, key = COC1=C2CC(C)CC(OC)C(O)C(C)/C=C(\C)C(OC(N)=O)C(OC)/C=C\C=C(/C)C(=O)NC(=C(C=NC(C)(C)C)C1=O)C2=O (stereo not drawn)
result: n

query: Kindly provide the recorded test outcome for the following molecule: O=C(O)Cc1ccccc1Cl
result: n

query: Outcome logged for CC1C(c2ccccc2)OC(c2ccccc2)N1C (stereo not drawn) in this assay:
result: n

query: So what was the verdict on CCc1cccc(CC)c1N=Cc1ccccc1O in this test?
result: n

query: Can you look up the reported call for Cc1cc(NS(=O)(=O)c2ccc(NC(=O)c3ccc(Cl)c4c(Nc5ccc(S(=O)(=O)N=C(N)N)cc5)c5ccccc5nc34)cc2)no1 for me?
result: n

query: GET /call?item= CC1C=C(Br)C(=O)C(n2cnc3c(=O)n(C)c(=O)n(C)c32)O1 (stereo not drawn) returns the recorded outcome of this test.
result: n

query: # fetch the recorded call for O=C(OCOC(=O)c1ccccc1)c1ccccc1 here
result: n

query: Call for entry CC1(C)C2CC3C(C2)C31C :
result: n

query: Returns: the outcome recorded for Nc1nnnn1CCc1ccccc1 in this assay.
result: n

query: Which outcome did this test record for the molecule O=c1/c(=C/c2ccccc2[N+](=O)[O-])sc2nnc(-c3cccnc3)n12 ?
result: n

query: Would you mind telling me which call this test gave COc1ccc(C(=O)C(C)(CCC#N)CCC#N)cc1 ?
result: n

query: Tell me the assay call for CC(=O)NC1CCCC(CC2CCCCC2)C1 (stereo not drawn) please.
result: n

query: Per the assay record, what outcome was assigned to O=c1ncc2ccccc2[nH]1 ?
result: n

query: Look up the recorded call for CC1(C)OC2COC3(COC(C)(C)O3)C(O)C2O1 (stereo not drawn) in this test.
result: n

query: Each molecule tested received a call. Report the one for O=c1nc(OCCO)c([N+](=O)[O-])c(C(Cl)(Cl)Cl)[nH]1 .
result: y

query: Recorded test outcome, item C=CCOC(C)OCC=C
result: n

query: Tell me the recorded outcome of this test for CCCC1(CCC)CNC(=O)NC1 .
result: n

query: Dear all, I need the recorded test outcome for COC(=O)C1=C(C)N(NC(N)=O)C2(N)N(NC(N)=O)C(C)=C(C(=O)OC)C12C(=O)OC (stereo not drawn) , thank you.
result: n

query: What did this assay record as the result for CCC(C)OC(=O)CC(c1ccccc1)N1CCCCC1 (stereo not drawn) ?
result: n

query: Could you check what this test reported for COC1/C=C/OC2(C)Oc3c(C)c(O)c4c(c3C2=O)C(N)=C(Nc2ccccc2)C(=NC(=O)C(C)=CC=CC(C)C(O)C(C)C(O)C(C)C(OC(C)=O)C1C)C4=O (stereo not drawn) ?
result: n

query: Short answer needed: outcome of this test for Nc1nc(=O)n(CCCCCCc2ccccc2)cc1-c1ccc(Cl)c(Cl)c1 ?
result: n

query: Tell me the recorded outcome of this test for CCSc1ccc(N=[N+]([O-])c2ccc(SCC)c(Cl)c2)cc1Cl .
result: n

query: Outcome logged for c1ccc2c(c1)Cc1ccccc1-2 in this assay:
result: n

query: Hi, sorry to bother you, what did the test record for [N-]=[N+]=Nc1cc(=O)n(-c2ccccc2)c2ccccc12 ?
result: n

query: // outcome(item) with item = C=C(C)COC(=O)COc1ccc(Cl)cc1
result: n

query: Hey, what did the test say about CC(=O)N(C(C)=O)c1cc2c3ccccc3ccc2c2ccccc12 ?
result: n

query: # fetch the recorded call for OCC1OC(n2c(SCc3ccccc3)nc3ccccc32)C(O)C1O (stereo not drawn) here
result: n

query: Outcome logged for CSc1ccc(NC(=O)Nc2ccccc2F)cc1 in this assay:
result: n

query: Record request — test call for C=CCNc1nc2c(s1)CCc1cc(OC)c(OC)cc1-2
result: n

query: Which outcome was assigned to O=C(NNC(=O)c1ccc(Cl)cc1Cl)c1ccccc1 in this test?
result: n

query: State the result this test recorded for CCNC(=O)CCN(C(=O)O)S(=O)(=O)c1ccc(NC(=O)c2ccccc2)cc1 .
result: n

query: Any idea what this test logged for CCOc1ccc2nc(NC(=O)CC(C)=O)sc2c1 ?
result: n

query: Identify the outcome logged in this assay for the molecule shown: Cc1nc2c(cc1C(=O)N/N=C/c1ccc([N+](=O)[O-])cc1)c(=O)n(C)c(=O)n2C
result: n

query: Which outcome did this test record for the molecule CCCCCOC(C)(OCCCCC)OCCCCC ?
result: n

query: What call does the record list for CC(C)(C)NC(=O)c1cccc(C(=O)NC(C)(C)C)n1 ?
result: n

query: # fetch the recorded call for CCCn1c(=O)n(C)c(=O)c2c1ncn2C here
result: n

query: Identify the outcome logged in this assay for the molecule shown: CC(=O)NNC(=S)N/C=C(\C#N)S(=O)(=O)c1ccc(C)cc1
result: n

query: Tell me the recorded outcome of this test for CN1c2ccccc2C2=C(c3ccccc3)CC[C@@H](C(=O)N3C4CC5CC[C@@]4(CS3(=O)=O)C5(C)C)[C@@H]21 (stereo partly drawn) .
result: n

query: Dear colleague, could you share the recorded outcome for c1ccc(C(C2=Nc3cccc4cccc(c34)N2)c2ccccc2)cc1 when you have a moment?
result: n
